Target: T1, hsRosR (Halobacterium salinarum (Halobacterium …, UniProt Q9HSF4 1-116))
T1 sequence: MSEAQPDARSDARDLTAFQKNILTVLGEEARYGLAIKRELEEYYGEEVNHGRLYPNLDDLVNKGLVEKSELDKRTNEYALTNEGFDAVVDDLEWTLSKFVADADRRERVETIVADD
Test: fluorescence anisotropy
measurement.label: Kd (nM)
Field: numeric (nM). Do not append units.

binder S1 (25 bp) (dsDNA) DNA 1: GTGTAAATTGTCTGACATGTTCTTA DNA 2: TAAGAACATGTCAGACAATTTACAC , Kd observed: 80.2
